Test system: P388 leukemia ip, CD2F1 mice, survival T/C
EXPERIMENT_DESCRIPTION: NCI In Vivo Anticancer Drug Screen. Data for tumor model P388 Leukemia (intraperitoneal) in CD2F1 (CDF1) mice
ASSAY_CONDITIONS: endpoint: median survival time; dose: 120.0 mg/kg/injection; schedule: Q01DX005 (ip); vehicle: saline with Tween-80; higher = longer survival
Toxic doses and inconclusive results are not listed.
PROPERTY: T/C

CN1NC(c2ccccc2)=NN=C1c1ccccc1
102 % of control

Please report T/C for every entry that follows.
1. CC(=O)OC1C(=O)C=C(C)OC1=O (centres undefined)
2. O=C1OC[C@@H]2[C@H]1[C@H]1O[C@@H]2c2cc3ccccc3cc21
3. O=C(Nc1ccc(Cl)cc1)Nc1nnc2nc(C(C(=O)c3cccc([N+](=O)[O-])c3Cl)c3nc4nnc(NC(=O)Nc5ccc(Cl)cc5)n4[nH]c3=O)c(=O)[nH]n12

1: 99 % of control; 2: 101 % of control; 3: 101 % of control

Please report T/C for every entry that follows.
1. S=C(SCc1c(Cl)cccc1Cl)N1CCSCC1
2. O=c1oc2cc(O)ccc2cc1-c1nc2ccccc2o1
3. CN1C(C(=O)Nc2nccs2)=C(O)c2ccccc2S1(=O)=O
4. CC1(C)OC(C(F)(F)F)(C(F)(F)F)c2cc(C(C)(C)C)ccc2S1
5. Cc1nc(N)nc(Nc2ccccc2)n1
6. CNC(=O)NNC(=O)c1ccccc1Cl
7. Cc1sc2c(c1C)c(=O)[nH]c1c(C#N)c(-c3ccc(Cl)cc3)cn12
8. CC1=C(C(=O)CC(=O)C(=O)Nc2ccc(Cl)cc2Cl)Sc2ccccc2N1

1. 93 % of control
2. 98 % of control
3. 98 % of control
4. 98 % of control
5. 99 % of control
6. 101 % of control
7. 89 % of control
8. 100 % of control

Please report T/C for every entry that follows.
1. CCOC(=O)C1=C(N)N(S(=O)(=O)c2ccc(C)cc2)CCC(C(=O)OC)=C1
2. CN1c2ccc(C=O)cc2Sc2cc(C=O)ccc21
3. C[C@H]1C(=O)OCN1S(=O)(=O)C(C)(C)C
4. COc1cc(CC(OC)OC)no1

1: 119 % of control; 2: 91 % of control; 3: 104 % of control; 4: 103 % of control

Please report T/C for every entry that follows.
1. NS(=O)(=O)c1ccc(NC(=O)C2C(=O)N(c3ccc(S(N)(=O)=O)cc3)C(=O)/C2=N/O)cc1 (centres undefined)
2. N#Cc1c(-c2ccccc2)ssc1=S
3. C[n+]1c(-c2ccc(/C=N/NC(=O)c3cc(O)c(C(=O)N/N=C/c4ccc(-c5cn6ccccc6[n+]5C)cc4)cc3O)cc2)cn2ccccc21

1. 110 % of control
2. 103 % of control
3. 105 % of control

====

System: P388 leukemia ip, CD2F1 mice, survival T/C
EXPERIMENT_DESCRIPTION: NCI In Vivo Anticancer Drug Screen. Data for tumor model P388 Leukemia (intraperitoneal) in CD2F1 (CDF1) mice
ASSAY_CONDITIONS: endpoint: median survival time; dose: 240.0 mg/kg/injection; schedule: Q01DX005 (ip); vehicle: saline with Tween-80; higher = longer survival
Toxic doses and inconclusive results are not listed.
PROPERTY: T/C

COc1ccc(/C=C/Cc2cc3c(cc2OC(C)=O)OCO3)cc1
93 % of control

Please report T/C for every entry that follows.
1. O=C(O)c1cc(Nc2nc(Cl)nc(Cl)n2)ccc1-c1c2ccc(=O)cc-2oc2cc(O)ccc12
2. O=c1[nH]c2c([N+](=O)[O-])cc(Cl)cc2nc1/C=C(\O)c1ccc(F)cc1
3. CNC(=O)NNC(=O)c1ccccc1Cl
4. COC(=O)C(=O)C(C#N)c1ccc(OC)c(OC)c1 (stereo unspecified)
5. O=C1c2c(ccc3ccccc23)CN2CCCCC12 (stereo unspecified)
6. O=C1CC2COc3ccccc3C2=NN1c1ccccc1 (stereo unspecified)
7. COC1=CCC(CCNC(=O)c2cc3c(cc2[N+](=O)[O-])OCO3)=CC1

1. 117 % of control
2. 106 % of control
3. 103 % of control
4. 95 % of control
5. 103 % of control
6. 91 % of control
7. 98 % of control

Please report T/C for every entry that follows.
1. Cc1nc2ccc(N(C)C)cc2c2c1Cc1c(C)nc3ccc(N(C)C)cc3c1O2
2. NC(=O)c1cc2c(oc1=O)-c1ccccc1OC2
3. O=C(O)C12CCC(c3ccccc31)c1ccccc12
4. O=S(=O)(c1cc(Cl)ccc1Cl)N(CCCCCN(S(=O)(=O)c1cc(Cl)ccc1Cl)S(=O)(=O)c1cc(Cl)ccc1Cl)S(=O)(=O)c1cc(Cl)ccc1Cl
5. COc1cc(C2C(C(C)=O)=C(C)Oc3cc4c(cc32)OCO4)cc(OC)c1OC (stereo unspecified)

1. 94 % of control
2. 95 % of control
3. 100 % of control
4. 95 % of control
5. 87 % of control

Please report T/C for every entry that follows.
1. O=c1c2c(c(=O)c(=O)c1=O)Nc1ccccc1N2
2. CCCCCCC(O)Cc1cc(-c2ccccc2)nc(=O)[nH]1 (stereo unspecified)
3. Nc1nnc(CCC(=O)Nc2ccccc2Cl)o1

107 % of control
95 % of control
97 % of control

====

System: P388 leukemia ip, CD2F1 mice, survival T/C
EXPERIMENT_DESCRIPTION: NCI In Vivo Anticancer Drug Screen. Data for tumor model P388 Leukemia (intraperitoneal) in CD2F1 (CDF1) mice
ASSAY_CONDITIONS: endpoint: median survival time; dose: 60.0 mg/kg/injection; schedule: Q01DX005 (ip); vehicle: saline with Tween-80; higher = longer survival
Toxic doses and inconclusive results are not listed.
PROPERTY: T/C

Below, each entry is followed by its recorded T/C result.
O=C(c1ccc(Cl)cc1)c1cc2ccccc2oc1=O
92 % of control
COc1ccc(/C=C/Cc2cc3c(cc2OC(C)=O)OCO3)cc1
98 % of control
CCOC(=O)c1ccc(NC(=O)Nc2ccccc2F)cc1
95 % of control
CN1C(=O)C2CCC(=O)N2C(=S)N(C)C1=S (stereo unspecified)
106 % of control
C[n+]1c(-c2ccc(/C=N/NC(=O)c3cc(O)c(C(=O)N/N=C/c4ccc(-c5cn6ccccc6[n+]5C)cc4)cc3O)cc2)cn2ccccc21
105 % of control
OCCN(CO)CCO
117 % of control
O=C1/C(=C/c2cccc(O)c2)COc2ccccc21
95 % of control
CCn1cc(C(=O)O)c(=O)c2cc(Cl)c(-n3cccc3)cc21
95 % of control

Please report T/C for every entry that follows.
1. COc1cc(C2C3=C(CCCC3=O)Oc3cc4c(cc32)OCO4)cc(OC)c1OC (stereo unspecified)
2. CC(=O)OCc1c(C)[nH]c2ccc(N(C)C)cc2c1=O

91 % of control
88 % of control

Please report T/C for every entry that follows.
1. Nc1nc(-c2ccccn2)cc2ccccc12
2. O=C(/C=C/c1c[nH]c2ccccc12)c1ccc([N+](=O)[O-])cc1
3. CCC(C)OC(=Nc1cccc2ccccc12)Nc1cccc2ccccc12 (stereo unspecified)
4. CC12OC(=O)CC1OC2(c1ccccc1)c1ccccc1 (stereo unspecified)
5. O=P(OC1=CCCCC1)(c1ccccc1)c1ccccc1

["105 % of control", "97 % of control", "92 % of control", "96 % of control", "99 % of control"]

Please report T/C for every entry that follows.
1. CCCCCCCC(=O)NCCCC(C)Nc1cc(OC)cc2cccnc12 (stereo unspecified)
2. Cc1ccc2c(c1)C(=O)c1cc3c(cc1C2=O)OCO3
3. Nc1nc(N)c2c(n1)NCN(OCCOc1ccc(Cl)cc1Cl)C2
4. COC(=O)c1cc(OCC#CC#CCOc2ccc(O)c(C(=O)OC)c2)ccc1O
5. COc1cc(NS(=O)(=O)c2ccc(NC(C)c3ccc4cccnc4c3O)cc2)nc(OC)n1 (stereo unspecified)

1: 106 % of control; 2: 87 % of control; 3: 105 % of control; 4: 95 % of control; 5: 98 % of control

====

Tested on: P388 leukemia ip, CD2F1 mice, survival T/C
EXPERIMENT_DESCRIPTION: NCI In Vivo Anticancer Drug Screen. Data for tumor model P388 Leukemia (intraperitoneal) in CD2F1 (CDF1) mice
ASSAY_CONDITIONS: endpoint: median survival time; dose: 60.0 mg/kg/injection; schedule: Q01DX005 (ip); vehicle: saline with Tween-80; higher = longer survival
Toxic doses and inconclusive results are not listed.
PROPERTY: T/C

Below, each entry is followed by its recorded T/C result.
O=C(Nc1cccc(S(=O)(=O)F)c1)Oc1ccc([N+](=O)[O-])cc1
113 % of control
CSc1nc(NC2OC(COC(C)=O)C(OC(C)=O)C(OC(C)=O)C2OC(C)=O)c(N=C(C)C(C)=O)c(=O)[nH]1 (stereo unspecified)
100 % of control
O=c1ccnc2ccccn12
94 % of control
O=C(/C=C/c1c[nH]c2ccccc12)c1cccc([N+](=O)[O-])c1
97 % of control
Nc1nc(N)c(NS(=O)(=O)c2ccccc2)c(=O)[nH]1
108 % of control

As a next step, examine the compound that follows.
Which value of T/C has been reported for `CS(=O)(=O)Cc1cc(-c2ccccc2)no1` in the records?
100 % of control
